System: A673/TR/shEF
Assay: cell viability (LOESS-normalised, relative to median of negative controls) (log2 ratio); higher = more viable cells (less compound effect), active = hit call of the paper (over 3 MAD below the median)
Details: 2.5 µM; library screen: screen1; EWS-FLI1 expression: high (no doxycycline); treatment time: 72 h
The campaign covered roughly 3,200 compounds. About 300 (9.4%) showed activity. Shown is part of a subset that was picked to be rich in actives.
// values below are reported cell viability (log2)
The answer should be a number; do not append a unit.

CN1C2C[C@H](OC(=O)[C@H](CO)c3ccccc3)CC1[C@@H](O)C2 (stereo partly drawn)    0.116
CN(C)C(=S)SSC(=S)N(C)C    -2.99
COc1cc2c(cc1OC)-c1c(oc3c4c(ccc3c1=O)OC(C(C)C)C4)CO2 (stereo not drawn)    0.122
CC(C)[C@]12O[C@H]1[C@@H]1O[C@@]13[C@@]1(C)CCC4=C(COC4=O)[C@@H]1C[C@@H]1O[C@@]13C2=O    -3.24
COC(C)(C)CCCC(C)C/C=C/C(C)=C/C(=O)OC(C)C (stereo not drawn)    0.116
Cn1c(=O)c2c(ncn2CCCl)n(C)c1=O    -0.000593
C=C1C2CC[C@@]3(C)[C@H](c4ccoc4)OC(=O)C[C@]13O[C@H]1CC(=O)C(C)(C)[C@H](C(OC(C)=O)C(=O)OC)[C@@]21C (stereo partly drawn)    0.106

Return reported cell viability (log2); argument: CC(=O)O[C@H]1CC[C@]2(C=O)C3CC[C@]4(C)[C@@H](C5=CC(=O)OC5)CC[C@]4(O)C3CC[C@]2(O)C1 (stereo partly drawn)
-1.12
